experimentalTarget: T1, cyno IL-5 with his-tag (cyno (paragraph 156 says rhesus), UniProt P48093 20-134 (rhesus entry))
T1 construct: also called rhesus IL-5 with His-tag; monkey IL-5
T1 sequence: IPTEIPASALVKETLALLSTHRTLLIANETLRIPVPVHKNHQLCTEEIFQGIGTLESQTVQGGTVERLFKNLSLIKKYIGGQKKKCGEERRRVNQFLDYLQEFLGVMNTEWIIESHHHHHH
assayDetails: Biacore T200, antibody captured on protein A chip, antigen in flow, 1:1 Langmuir
readoutLabel: Kd (nM)
Give the number; nM is assumed, so skip it.

stdin: Kd lookup needed for mAb1779 (antibody, V domains shown, Murine hybridoma antibody) VH: QVKLLQSGAALVKPGDSVKMSCKASGYTFTDYIIHWVKQSHGKSLEWIGYFNPNSGGSNYNENFKRKATLTADKSSSTAYLEFSRVTSEDSAIYYCGRRIAWDHWYFDFWGPGTMVTVSS VL: DIQMTQSPASLSASLGETVSIECLASEGISNDVAWYQQKSGRSPQLLVYAASRLQDGVPSRFSGSGSGTRYFFKISGMQPEDEADYFCQQGYKTPLTFGSGTKLEIK , thanks.
stdout: 9.98
